tested on: human neutrophils; assay: Annexin V/PI flow cytometric assay of neutrophils’ viability; type: cell-based; conditions: annexin V/PI assay, 40 min incubation at 37 °C
Define the label as condition met when Higher 2-SC concentration that did not affect human neutrophils’ viability is strictly less than 10 µM and as condition not met in all remaining cases.

1. O=c1cc(/C=C/c2ccc(O)c(O)c2)oc2cccc(O)c12; condition met
2. COc1cc(OC)c2c(=O)cc(/C=C/c3ccc(OCc4ccccc4)c(OCc4ccccc4)c3)oc2c1 [D2]; condition not met
3. O=c1cc(/C=C/c2cccc(O)c2)oc2ccccc12; condition not met
4. O=c1cc(/C=C/c2cccc(Cl)c2)oc2cccc(O)c12; condition not met
5. Cc1ccc(/C=C/c2cc(=O)c3ccccc3o2)cc1 [E1]; condition not met
6. COc1ccc(/C=C/c2cc(=O)c3ccc(O)c(O)c3o2)cc1OC; condition met
7. O=c1cc(/C=C/c2ccccc2O)oc2cccc(O)c12; condition not met
8. O=c1cc(/C=C/c2ccccc2)oc2cc(O)cc(O)c12; condition not met
9. COc1ccc2c(=O)c(Br)c(/C=C/c3ccccc3)oc2c1; condition not met
10. COc1cc(OC)c2c(=O)cc(/C=C/c3ccc(OC)c(OC)c3)oc2c1; condition not met
